Tested on: lambsquarters
Test: Test B pre-/postemergence herbicide test
Format: in vivo, Chenopodium album
Conditions: Postemergence, 500 g ai/ha; scale 0 (no effect) to 100 (complete control)
Could you mark each record T if its Lambsquarters plant response rating falls strictly under 70, and F if it equals or exceeds it?

• C=CCN(CC=C)C(=O)c1cccc(NC(=O)c2nn(C(C)(C)C)nc2CC)c1 [Compound 415] = F
• CCc1nn(C(C)C)nc1C(=O)Nc1cccc(C(=O)N2CCCCC2)c1 [Compound 385] = T
• CCNC(=O)c1cccc(NC(=O)c2nn(C(C)(C)C)nc2C)n1 [Compound 437] = T
• C=CCNC(=O)c1ccc(F)c(NC(=O)c2cc(C(C)(C)C)nn2CC)c1 [Compound 430] = F

Ask | Please indicate whether the reported Lambsquarters plant response rating of CCc1nn(C(C)C)nc1C(=O)Nc1cccc(C(=O)N(C)CC)c1 [Compound 386] is strictly below 70.
Reply | T

Ask | Determine whether this compound shows Lambsquarters plant response rating lower than 70 (ties excluded): CCNC(=S)c1cccc(NC(=O)c2nn(C(C)(C)C)nc2C)c1 [Compound 420]
Reply | F

Ask | Is Lambsquarters plant response rating of Cc1nn(C(C)(C)C)nc1C(=O)Nc1cccc(C(=O)N2CC=CC2)n1 [Compound 441] strictly below 70?
Reply | T

----------
Test system: ducksalad
Assay: Test C flooded paddy test
Assay type: in vivo, Heteranthera limosa
Conditions: 250 g ai/ha, scale of 0 to 100, 0 is no effect, 100 is complete control
Text: […]
# Ducksalad plant response rating values compiled below

// known answers, use as guide
- C#CCNC(=O)c1cccc(NC(=O)c2sc(C(C)(C)C)nc2CC)c1: 45
- CCc1nn(C(C)C)nc1C(=O)Nc1cccc(C(=S)N(C)C)c1: 80
- CC(=O)c1cccc(NC(=O)c2cc(C(C)(C)C)nn2CC(F)(F)F)c1: 25
- CCn1nc(C(C)(C)C)cc1C(=O)Nc1cccc(C(=O)NC(C)C)c1: 75

Ask | Need Ducksalad plant response rating, item CCn1nc(C(C)(C)C)cc1C(=O)Nc1cncc(C(=O)N2CC=CC2)c1
Reply | 75

Ask | # lookup: Ducksalad plant response rating of CON=C(C)c1cccc(NC(=O)c2cc(C(C)(C)C)nn2C)c1
Reply | 0

Ask | What value of measured Ducksalad plant response rating is listed for CCn1nc(C(C)(C)C)cc1C(=O)Nc1ccc(OC)c(C(=O)OC(C)C)c1 ?
Reply | 40

Ask | Consider the compound CCn1nc(C(C)(C)C)cc1C(=O)Nc1cccc(OCCCF)c1 and give its measured Ducksalad plant response rating.
Reply | 55

Ask | Would you mind telling me what Ducksalad plant response rating value was observed for C=CCn1nc(C(C)(C)C)cc1C(=O)Nc1cccc(C(=O)NCC)c1 ?
Reply | 70

Ask | Fill in the blank: the reported Ducksalad plant response rating of CCN(C)C(=O)c1cccc(NC(=O)c2nn(C(C)C)nc2C)c1 is ____.
Reply | 40

Ask | Query (compound): CCOC(=O)c1cc(NC(=O)c2cc(C(C)(C)C)nn2CC)ccc1OCC ; field requested: Ducksalad plant response rating
Reply | 75

Ask | // returns reported Ducksalad plant response rating for input CCn1nc(C2(C)CC2)cc1C(=O)Nc1cc(C(=O)N2CC=CC2)ccc1F
Reply | 90

----------
Tested on: corn
Assay: Test C pre-/postemergence herbicide test
Assay type: in vivo, Zea mays
Settings: 62 g ai/ha; preemergence
PARAMETER: Plant response rating (0 = no effect, 100 = complete control), Corn
The answer should be a number; do not append a unit.

Some compounds with known Plant response rating (0 = no effect, 100 = complete control), Corn results, for comparison:
• CCn1nc(C(C)(C)C)cc1C(=O)Nc1cccc(C(=O)NCC2CC2)c1 = 0
• CCNC(=O)c1cccc(NC(=O)c2cc(C(C)(C)C)nn2CC)n1 = 0
• CC(=O)c1cccc(NC(=O)c2cc(C(C)(C)C)nn2CCF)c1 = 20

Please examine the following record next.
Ask | Entry under review: CCNC(=O)c1cccc(NC(=O)c2cc(C(C)(C)C)nn2CC(F)(F)F)c1 . Reported Plant response rating (0 = no effect, 100 = complete control), Corn?
Reply | 0

----------
Tested on: corn
Assay: Test C pre-/postemergence herbicide test
Format: in vivo, Zea mays
Conditions: 250 g ai/ha; scale 0-100; preemergence
A collection of molecules and their measured Plant response rating, Corn
Would you mind answering with just the numeric figure?

Illustrative cases are given below, each with its answer.
• CCn1nc(C2(C)CC2)cc1C(=O)Nc1cc(C(=O)N2CC=CC2)ccc1F = 40
• CCN1N=C(C(C)(C)C)CC1C(=O)Nc1cc(C(=O)N2CC=CC2)ccc1F (racemic) = 5
• CCc1nn(C(C)C)nc1C(=O)Nc1cccc(C(=S)N(C)C)c1 = 75
• C=CCNC(=O)c1cccc(NC(=O)c2cc(C(C)(C)C)nn2C)n1 = 10
• CCNC(=O)c1ccc(F)c(NC(=O)C2CC(C(C)(C)C)=NN2CC)c1 (racemic) = 40

// moving on: another record for Plant response rating, Corn
Ask | Which Plant response rating, Corn reading was recorded for the molecule CCn1nc(C(C)(C)C)cc1C(=O)Nc1cc(C(=O)N(C)OC)ccc1F ?
Reply | 10

----------
Parameter: Surinam Grass plant response rating. Scope: all listed entries.
Test system: Surinam grass
Test: Test B pre-/postemergence herbicide test
Assay type: in vivo, Urochloa decumbens
Conditions: 125 g ai/ha; visual rating, scale 0 (no effect) to 100 (complete control); postemergence
Procedure: […] At the same time, plants selected from these crop and weed species and also blackgrass (Alopecurus myosuroides Huds.), wheat (Triticum aestivum L.) and wild oat (Avena fatua L.) were treated with postemergence applications of test chemicals formulated in the same manner. […] Treated plants and controls were maintained in a greenhouse for 13 to 15 days, after which time all species were compared to controls and visually evaluated. […]
Enter a number only.

• CCn1nc(C2(C)CC2)cc1C(=O)Nc1cc(C(=O)N2CC=CC2)ccc1F = 10
• CCc1nn(C(C)(C)CC)nc1C(=O)Nc1cc(C(=O)N2CC=CC2)ccc1F = 0

Ask | Item: C=CCNC(=O)c1cccc(NC(=O)c2nn(C(C)C)nc2CC)c1 Test system: Surinam grass Read-out: Surinam Grass plant response rating Value: ?
Reply | 10

----------
Tested on: cocklebur
Assay: Test B pre-/postemergence herbicide test
Format: in vivo, Xanthium strumarium
Conditions: 500 g ai/ha; visual rating 0-100, 0 no effect, 100 complete control; preemergence
Below: a set of entries, each annotated with reported Plant response rating, Cocklebur.
Could you keep your reply to the number by itself?

Ask | Quick check: Plant response rating, Cocklebur on cocklebur, item CC(=NO)c1cccc(NC(=O)c2cc(C(C)(C)C)nn2C)c1 ?
Reply | 0

Ask | Lab note: need Plant response rating, Cocklebur for CCc1nc(C(C)(C)C)sc1C(=O)Nc1cccc(C(=O)NCC2CC2)c1 on cocklebur, anyone have it?
Reply | 50

Ask | What value of Plant response rating, Cocklebur on cocklebur does CCCn1nc(C(C)(C)C)cc1C(=O)Nc1cccc(C(C)=NO)c1 have?
Reply | 20

Ask | Enter reported Plant response rating, Cocklebur observed with cocklebur for CCc1nc(C(C)(C)C)sc1C(=O)Nc1cccc(C(=O)NCCF)c1
Reply | 30

Ask | Request body: readout Plant response rating, Cocklebur, system cocklebur, query CCn1nc(C(C)(C)C)cc1C(=O)Nc1cccc(OCCCF)c1 . Return the value.
Reply | 10

Ask | Which measured Plant response rating, Cocklebur belongs to CCOc1cccc(NC(=O)c2cn(C(C)(C)C)nc2C)c1 , tested on cocklebur?
Reply | 0

Ask | What is its Plant response rating, Cocklebur for cocklebur? Entry: CON=C(C)c1cccc(NC(=O)c2cc(C(C)(C)C)nn2C)c1
Reply | 0

----------
Test system: rice
Assay: Test C flooded paddy test
Assay type: in vivo, Oryza sativa
Conditions: 250 g ai/ha, scale of 0 to 100, 0 is no effect, 100 is complete control
PARAMETER: Rice plant response rating
Lab note: jot the number down without any unit.

Ask | Please give the measured Rice plant response rating for this compound: CCOC(=O)c1cccc(NC(=O)c2cc(C3(C)CC3)nn2CC)c1 [Compound 295]
Reply | 40

Ask | Reported Rice plant response rating, compound CCN1CCc2c(NC(=O)c3cc(C(C)(C)C)nn3CC)cccc2C1=O [Compound 63] : ____
Reply | 15

Ask | Fill blank: measured Rice plant response rating of the compound CCc1nc(C(C)(C)C)sc1C(=O)Nc1cccc(C(=O)NCCF)c1 [Compound 209] is ____.
Reply | 45

Ask | Look up Rice plant response rating: CCNC(=O)c1cccc(NC(=O)c2cc(C(C)(C)C)nn2CC)n1 [Compound 144]
Reply | 30

Ask | Query: Rice plant response rating; subject: CCn1nc(C(C)(C)C)cc1C(=O)Nc1ccnc(C(=O)N(C)C)c1 [Compound 256]
Reply | 0

Ask | What does the data say about its Rice plant response rating? Entry: CCn1nc(C2(C)CC2)cc1C(=O)Nc1cc(C(=O)N2CC=CC2)ccc1F [Compound 301]
Reply | 75

Ask | Form field: reported Rice plant response rating of CCNC(=O)c1ccc(F)c(NC(=O)c2sc(C(C)(C)C)nc2CC)c1 [Compound 226]
Reply | 45

Ask | Any idea what its Rice plant response rating is? The compound is CCNC(=O)c1ccc(F)c(NC(=O)c2cc(C(C)(C)C)nn2CC)n1 [Compound 278]
Reply | 15

Ask | Item under review: CON=C(C)c1cccc(NC(=O)c2cc(C(C)(C)C)nn2C)c1 [Compound 106] . Reported Rice plant response rating?
Reply | 0
